# Test system: HeLa Kyoto
# MEASUREMENT_NOTES: melting temperature (median over replicates), in situ; higher = more thermally stable
# STUDY_CONDITIONS: cell cycle stage: mitosis
melting temperature values, listed per item
Give just the numeric value; °C need not be written.

Some sequences with recorded melting temperature:
RESIDUE_CODES	TARGET_DESC	UNIT_SYMBOL	melting temperature
MMATPNQTACNAESPVALEEAKTSGAPGSPQTPPERHDSGGSLPLTPRMESHSEDEDLAGAVGGLGWNSRSPRTQSPGGCSAEAVLARKKHRRRPSKRKRHWRPYLELSWAEKQQRDERQSQRASRVREEMFAKGQPVAPYNTTQFLMNDRDPEEPNLDVPHGISHPGSSGESEAGDSDGRGRAHGEFQRKDFSETYERFHTESLQGRSKQELVRDYLELEKRLSQAEEETRRLQQLQACTGQQSCRQVEELAAEVQRLRTENQRLRQENQMWNREGCRCDEEPGT [HEXIM2]	HeLa Kyoto	°C	53.4
MAEPQPPSGGLTDEAALSCCSDADPSTKDFLLQQTMLRVKDPKKSLDFYTRVLGMTLIQKCDFPIMKFSLYFLAYEDKNDIPKEKDEKIAWALSRKATLELTHNWGTEDDETQSYHNGNSDPRGFGHIGIAVPDVYSACKRFEELGVKFVKKPDDGKMKGLAFIQDPDGYWIEILNPNKMATLM [GLO1]	HeLa Kyoto	°C	54.5

Continue with the sequence presented below.
Item MICLVLTIFANLFPAACTGAHERTFLAVKPDGVQRRLVGEIVRRFERKGFKLVALKLVQASEELLREHYAELRERPFYGRLVKYMASGPVVAMVWQGLDVVRTSRALIGATNPADAPPGTIRGDFCIEVGKNLIHGSDSVESARREIALWFRADELLCWEDSAGHWLYE [NME3] has what recorded melting temperature?
56.8

* * *

# Test system: HeLa Kyoto
# MEASUREMENT_NOTES: solubility change mitosis vs G1/S (difference of NP-40 vs SDS log2 ratios) (log2 ratio difference); higher = more soluble in mitosis
PROPERTY_LABEL: solubility change mitosis (log2)
Just the number, please.

Some sequences with recorded solubility change mitosis (log2):
RESIDUE_CODES	READOUT_NUMBER
MEDEMPKTLYVGNLSRDVTEALILQLFSQIGPCKNCKMIMDTAGNDPYCFVEFHEHRHAAAALAAMNGRKIMGKEVKVNWATTPSSQKKDTSSSTVVSTQRSQDHFHVFVGDLSPEITTEDIKAAFAPFGRISDARVVKDMATGKSKGYGFVSFFNKWDAENAIQQMGGQWLGGRQIRTNWATRKPPAPKSTYESNTKQLSYDEVVNQSSPSNCTVYCGGVTSGLTEQLMRQTFSPFGQIMEIRVFPDKGYSFVRFNSHESAAHAIVSVNGTTIEGHVVKCYWGKETLDMINPVQQQNQIGYPQPYGQWGQWYGNAQQIGQYMPNGWQVPAYGMYGQAWNQQGFNQTQSSAPWMGPNYGVQPPQGQNGSMLPNQPSGYRVAGYETQ [TIA1]	0.0786
MPILKQLVSSSVHSKRRSRADLTAEMISAPLGDFRHTMHVGRAGDAFGDTSFLNSKAGEPDGESLDEQPSSSSSKRSLLSRKFRGSKRSQSVTRGEREQRDMLGSLRDSALFVKNAMSLPQLNEKEAAEKGTSKLPKSLSSSPVKKANDGEGGDEEAGTEEAVPRRNGAAGPHSPDPLLDEQAFGDLTDLPVVPKATYGLKHAESIMSFHIDLGPSMLGDVLSIMDKEEWDPEEGEGGYHGDEGAAGTITQAPPYAVAAPPLARQEGKAGPDLPSLPSHALEDEGWAAAAPSPGSARSMGSHTTRDSSSLSSCTSGILEERSPAFRGPDRARAAVSRQPDKEFSFMDEEEEDEIRV [CDC42EP4]	-0.0259

API: value(readout= solubility change mitosis (log2), system= HeLa Kyoto, query= MSTGPTAATGSNRRLQQTQNQVDEVVDIMRVNVDKVLERDQKLSELDDRADALQAGASQFETSAAKLKRKYWWKNCKMWAIGITVLVIFIIIIIVWVVSS [VAMP3] )
-0.16
